For each of the molecules below, state its hERG current change (%, negative = inhibition) at 10uM.
# MEASURED ON: human ether-à-go-go-related gene (hERG) potassium channel (human)
# Sequence (Q12809 whole entry, looked up): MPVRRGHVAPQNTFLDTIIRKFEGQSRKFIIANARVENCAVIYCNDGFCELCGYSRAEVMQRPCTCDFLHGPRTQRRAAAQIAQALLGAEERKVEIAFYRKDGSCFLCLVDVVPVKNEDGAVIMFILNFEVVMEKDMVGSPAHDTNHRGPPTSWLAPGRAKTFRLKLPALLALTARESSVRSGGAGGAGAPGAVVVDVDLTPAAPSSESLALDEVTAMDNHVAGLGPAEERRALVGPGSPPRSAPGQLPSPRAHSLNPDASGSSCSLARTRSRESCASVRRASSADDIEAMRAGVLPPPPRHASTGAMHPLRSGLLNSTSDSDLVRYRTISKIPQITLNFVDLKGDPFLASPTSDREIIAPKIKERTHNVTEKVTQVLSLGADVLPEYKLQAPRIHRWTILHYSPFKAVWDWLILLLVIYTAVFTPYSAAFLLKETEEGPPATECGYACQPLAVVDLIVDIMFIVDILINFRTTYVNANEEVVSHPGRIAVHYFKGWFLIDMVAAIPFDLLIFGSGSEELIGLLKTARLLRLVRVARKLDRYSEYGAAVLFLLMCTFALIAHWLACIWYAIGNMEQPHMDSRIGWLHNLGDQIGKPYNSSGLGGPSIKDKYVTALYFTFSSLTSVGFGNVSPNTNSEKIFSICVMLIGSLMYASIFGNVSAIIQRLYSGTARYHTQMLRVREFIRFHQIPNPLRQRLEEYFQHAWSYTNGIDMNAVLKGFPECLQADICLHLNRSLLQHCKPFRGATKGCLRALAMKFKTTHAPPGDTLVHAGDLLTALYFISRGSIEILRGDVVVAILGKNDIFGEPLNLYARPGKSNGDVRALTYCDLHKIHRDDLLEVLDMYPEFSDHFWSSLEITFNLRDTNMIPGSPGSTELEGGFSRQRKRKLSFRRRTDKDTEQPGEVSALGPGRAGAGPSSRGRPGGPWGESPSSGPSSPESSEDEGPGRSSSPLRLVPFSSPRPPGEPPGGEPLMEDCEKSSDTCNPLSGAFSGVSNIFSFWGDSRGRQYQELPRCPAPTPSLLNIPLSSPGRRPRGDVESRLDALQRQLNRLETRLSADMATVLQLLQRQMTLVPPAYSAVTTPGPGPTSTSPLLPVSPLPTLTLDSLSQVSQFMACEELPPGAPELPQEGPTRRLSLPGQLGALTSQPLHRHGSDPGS
# ASSAY COMMENT: primary screen, population patch clamp on CHO cells stably expressing hERG; higher = less effect of the substance;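 further: peak tail current of the secondary pulse compared with the same well before compound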
# Method: Briefly, Chinese hamster ovary (CHO) cells stably expressing the hERG channel were dislodged from tissue culture flasks and dispensed into PPC plates. […] During the recording, background leak currents were estimated by a 100 ms step to -80 mV from an initial holding potential of -70 mV and subtracted from the subsequent current measurement. The campaign was conducted in two phases using slight differences in recording protocol. […]
About 14,000 (4.5%) of roughly 310,000 compounds showed an effect of 50% or more. Effects have a minus sign here. Shown is part of a subset that was picked to be rich in strong results.
Give bare numbers, in %.

Past entries and their recorded results:
Inquiry: Please report the recorded hERG current change (%, negative = inhibition) at 10uM for O=C(NCc1ccccc1)C1CCN(S(=O)(=O)c2ccc(Cl)cc2)CC1 .
Reply text: 3.16

Inquiry: Please report the recorded hERG current change (%, negative = inhibition) at 10uM for O=C(NCc1ccccc1Cl)C1CCN(S(=O)(=O)N2CCCCC2)CC1 .
Reply text: 1.33

Inquiry: Please report the recorded hERG current change (%, negative = inhibition) at 10uM for O=C(NCc1ccccc1CN1CCCC1)C1CCN(S(=O)(=O)c2ccc(Cl)cc2)CC1 .
Reply text: -69.4

For every item below, please supply its hERG current change (%, negative = inhibition) at 10uM.
1. O=C(NNC(=O)c1ccco1)c1cccc(Br)c1
2. O=C(NCc1ccccc1Cl)C1CCN(S(=O)(=O)N2CCCC2)CC1
3. COc1ccc(S(=O)(=O)N2CCC(C(=O)NCc3ccco3)CC2)cc1
4. CCOc1ccc(S(=O)(=O)N2CCC(C(=O)NCc3ccco3)CC2)cc1
5. C=CCN=C1CC(C)(C)CC(=O)/C1=C(\O)c1ccccc1
6. O=C(Nc1ccc(C(=O)N2CCCC2)cc1)c1ccccc1Br
7. N#Cc1ccccc1S(=O)(=O)N1CCC(C(=O)NCc2ccccc2CN2CCCC2)CC1

Reply text:
0.684
12.5
-25.4
-53
-6.18
19.8
-69.1
